For each record, write down the corresponding inhibition at 0.2 µM.
# Test system: hTRPV1 (Homo sapiens, UniProt Q8NER1)
# Construct: expressed in transfected cells; host or cells: HEK293
# Sequence (Q8NER1 whole entry): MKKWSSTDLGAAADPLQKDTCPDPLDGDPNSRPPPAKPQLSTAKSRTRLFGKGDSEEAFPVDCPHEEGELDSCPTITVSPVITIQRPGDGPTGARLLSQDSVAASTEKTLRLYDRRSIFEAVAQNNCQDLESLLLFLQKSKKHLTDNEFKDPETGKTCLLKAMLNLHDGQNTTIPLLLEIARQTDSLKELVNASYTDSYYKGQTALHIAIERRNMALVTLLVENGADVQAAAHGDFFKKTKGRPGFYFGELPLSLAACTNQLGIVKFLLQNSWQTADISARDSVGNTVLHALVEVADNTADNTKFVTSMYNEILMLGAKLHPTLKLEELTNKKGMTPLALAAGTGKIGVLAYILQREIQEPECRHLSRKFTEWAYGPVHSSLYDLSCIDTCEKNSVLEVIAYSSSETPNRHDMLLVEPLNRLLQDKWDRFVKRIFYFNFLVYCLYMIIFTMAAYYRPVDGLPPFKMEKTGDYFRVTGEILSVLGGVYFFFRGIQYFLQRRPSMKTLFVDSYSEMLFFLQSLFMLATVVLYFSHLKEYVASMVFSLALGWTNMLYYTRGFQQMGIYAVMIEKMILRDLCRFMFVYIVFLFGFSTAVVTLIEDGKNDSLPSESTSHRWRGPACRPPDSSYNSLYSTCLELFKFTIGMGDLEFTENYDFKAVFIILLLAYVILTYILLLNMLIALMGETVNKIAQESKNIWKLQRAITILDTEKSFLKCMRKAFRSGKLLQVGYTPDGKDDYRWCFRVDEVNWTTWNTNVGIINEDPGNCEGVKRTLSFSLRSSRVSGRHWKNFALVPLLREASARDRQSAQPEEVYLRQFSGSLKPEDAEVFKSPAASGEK
# Assay protocol: Human TRPV1 (hTRPV1) functional assay, FLIPR intracellular Ca2+, capsaicin challenge
# Assay type: cell-based
# Experimental conditions: test concentration of 0.2 μm; HEK293 cells expressing hTRPV1, capsaicin 0.030 μM challenge; read-out: percent inhibition (symbol b)
Answers are plain numbers, in %.

// below: answered compounds
Compound: CC(C)c1ccc(OCc2nc3cc(-c4ccccc4S(C)(=O)=O)ccc3[nH]2)cc1 [Cpd 77]
Outcome measure: inhibition at 0.2 µM
Assay value: 100
--
Compound: CS(=O)(=O)c1ccccc1-c1ccc2[nH]c(COc3ccc(Cl)cc3)nc2c1 [Cpd 59]
Outcome measure: inhibition at 0.2 µM
Assay value: 87
--
Compound: CS(=O)(=O)c1ccccc1-c1ccc2[nH]c(COc3ccc4c(c3)CCC4)nc2c1 [Cpd 91]
Outcome measure: inhibition at 0.2 µM
Assay value: 99

I have 3 compounds here; please give me inhibition at 0.2 µM for each one.
1. CC(C)(O)c1ccccc1-c1ccc2[nH]c(COc3ccccc3)nc2c1 [Cpd 50]
2. NS(=O)(=O)c1ccccc1-c1ccc2[nH]c(CS(=O)(=O)c3ccc(OC(F)(F)F)cc3)nc2c1 [Cpd 46]
3. CC(C)(O)CS(=O)(=O)c1ccccc1-c1ccc2[nH]c(COc3ccc(C(F)(F)F)cc3)nc2c1 [Cpd 159]

(A)
1. 81
2. 5
3. 90

====

# Test system: hTRPV1 (Homo sapiens, UniProt Q8NER1)
# Assay protocol: Human TRPV1 (hTRPV1) functional assay, FLIPR intracellular Ca2+, capsaicin challenge
# Experimental conditions: derived from a variety of test concentrations; HEK293 cells expressing hTRPV1, capsaicin 0.030 μM challenge; read-out: IC50 value (symbol c)
Outcome measure: pIC50
One number for each entry, as −log10 of the molar value.

// below: answered compounds
Compound: NS(=O)(=O)c1ccccc1-c1ccc2[nH]c(COc3cccc(Cl)c3)nc2c1
Outcome measure: pIC50
Assay value: 6.99
--
Compound: NS(=O)(=O)c1ccccc1-c1ccc2[nH]c(COc3cc(C(F)(F)F)cc(C(F)(F)F)c3)nc2c1
Outcome measure: pIC50
Assay value: 7.97
--
Compound: CC(=O)c1ccccc1-c1ccc2[nH]c(COc3ccc(C(F)(F)F)cc3)nc2c1
Outcome measure: pIC50
Assay value: 6.97

I have 8 compounds here; please give me pIC50 for each one.
1. NS(=O)(=O)c1ccccc1-c1ccc2[nH]c(COc3ccc(Cl)c(Cl)c3)nc2c1
2. CC(Oc1ccc(C(F)(F)F)cc1)c1nc2cc(-c3ccccc3S(N)(=O)=O)ccc2[nH]1 (stereo not shown)
3. COC(=O)c1ccccc1-c1ccc2[nH]c(COc3ccc(C(F)(F)F)cc3)nc2c1
4. CS(=O)(=O)Nc1ccccc1-c1ccc2[nH]c(COc3ccc(C4CC4)cc3)nc2c1
5. CNS(=O)(=O)c1ccccc1-c1ccc2[nH]c(COc3ccc(S(C)(=O)=O)cc3)nc2c1
6. NS(=O)(=O)c1ccccc1-c1ccc2[nH]c(COc3ccc(C(F)(F)F)cc3)nc2c1
7. CS(=O)(=O)c1ccccc1-c1ccc2[nH]c(COc3ccc4c(c3)CCC4)nc2c1
8. CC(C)C(O)c1ccccc1-c1ccc2[nH]c(COc3ccc(C(F)(F)F)cc3)nc2c1 (stereo not shown)

(A)
[7.66, 7.11, 7.61, 7.62, 8.10, 8.52, 7.68, 6.94]

I have 2 compounds here; please give me pIC50 for each one.
1. NS(=O)(=O)c1ccccc1-c1ccc2[nH]c(COc3ccc(F)c(F)c3F)nc2c1
2. CC(C)(O)c1ccccc1-c1ccc2[nH]c(COc3ccccc3)nc2c1

(A)
1. 6.96
2. 7.04

I have 3 compounds here; please give me pIC50 for each one.
1. NS(=O)(=O)c1c(F)cc(F)cc1-c1ccc2[nH]c(COc3ccc(C(F)(F)F)cc3)nc2c1
2. CS(=O)(=O)c1ccccc1-c1ccc2[nH]c(COc3ccc(F)c(C(F)(F)F)c3)nc2c1
3. NS(=O)(=O)c1cc(C(F)(F)F)ccc1-c1ccc2[nH]c(COc3ccc(C(F)(F)F)cc3)nc2c1

(A)
[7.33, 7.52, 6.98]

====

# Test system: hTRPV1 (Homo sapiens, UniProt Q8NER1)
# Construct: expressed in transfected cells; host or cells: HEK293
# Assay protocol: Human TRPV1 (hTRPV1) functional assay, FLIPR intracellular Ca2+, capsaicin challenge
# Type: cell-based
# Experimental conditions: test concentration of 0.5 μm; HEK293 cells expressing hTRPV1, capsaicin 0.030 μM challenge; read-out: percent inhibition (symbol a)
For each record, write down the corresponding inhibition at 0.5 µM.

Compound: NS(=O)(=O)c1ccccc1-c1ccc2[nH]c(COc3ccc(SC(F)(F)F)cc3)nc2c1 [Cpd 34]
Test system: hTRPV1 (Homo sapiens, UniProt Q8NER1)
Assay value: 100%

Compound: CS(=O)(=O)c1ccc(-c2ccc3[nH]c(COc4ccc(C(F)(F)F)cc4)nc3c2)cc1 [Cpd 100]
Test system: hTRPV1 (Homo sapiens, UniProt Q8NER1)
Assay value: 13%

Compound: NS(=O)(=O)c1ccccc1-c1ccc2[nH]c(COc3cc(C(F)(F)F)cc(C(F)(F)F)c3)nc2c1 [Cpd 31]
Test system: hTRPV1 (Homo sapiens, UniProt Q8NER1)
Assay value: 97%

Compound: CN(C)S(=O)(=O)c1ccccc1-c1ccc2[nH]c(COc3ccc(C(F)(F)F)cc3)nc2c1 [Cpd 106]
Test system: hTRPV1 (Homo sapiens, UniProt Q8NER1)
Assay value: 94%

Compound: CC(C)(O)c1ccccc1-c1ccc2[nH]c(COc3ccc(OC(F)(F)F)cc3)nc2c1 [Cpd 22]
Test system: hTRPV1 (Homo sapiens, UniProt Q8NER1)
Assay value: 100%

Compound: Oc1ccccc1-c1ccc2[nH]c(COc3ccc(C(F)(F)F)cc3)nc2c1 [Cpd 119]
Test system: hTRPV1 (Homo sapiens, UniProt Q8NER1)
Assay value: 14%

Lab note: next compound to report on.
(Q) Bench note: what inhibition at 0.5 µM did COC(=O)c1cccc(-c2ccc3[nH]c(COc4ccc(C(F)(F)F)cc4)nc3c2)c1 [Cpd 130] show?
(A) 11%

====

# Test system: hTRPV1 (Homo sapiens, UniProt Q8NER1)
# Assay protocol: Human TRPV1 (hTRPV1) functional assay, FLIPR intracellular Ca2+, capsaicin challenge
# Experimental conditions: derived from a variety of test concentrations; HEK293 cells expressing hTRPV1, capsaicin 0.030 μM challenge; read-out: IC50 value (symbol c)
Outcome measure: IC50 (nM)
Give bare numbers, in nM.

// below: answered compounds
Compound: NS(=O)(=O)c1ccccc1-c1ccc2[nH]c(COc3ccc(C4CC4)cc3)nc2c1
Unit of measurement: nM
IC50: 25
--
Compound: CN(C)C(=O)C(O)c1ccccc1-c1ccc2[nH]c(COc3ccc(C(F)(F)F)cc3)nc2c1 (stereo not shown)
Unit of measurement: nM
IC50: 58
--
Compound: NS(=O)(=O)c1ccccc1-c1ccc2[nH]c(COc3ccc(Br)cc3)nc2c1
Unit of measurement: nM
IC50: 6.6

Lab note: next compound to report on.
(Q) Bench note: what IC50 did "CNS(=O)(=O)c1ccccc1-c1ccc2[nH]c(COc3ccc(S(=O)(=O)C(F)(F)F)cc3)nc2c1" show?
(A) 20

====

# Test system: hTRPV1 (Homo sapiens, UniProt Q8NER1)
# Construct: expressed in transfected cells; host or cells: HEK293
# Assay protocol: Human TRPV1 (hTRPV1) functional assay, FLIPR intracellular Ca2+, capsaicin challenge
# Type: cell-based
# Experimental conditions: test concentration of 0.5 μm; HEK293 cells expressing hTRPV1, capsaicin 0.030 μM challenge; read-out: percent inhibition (symbol a)
Where inhibition at 0.5 µM equals or exceeds 40%, the correct label is label 1; where it does not, the label is label 0.

Solved entries (count: 3):
Compound: CC(=O)Nc1cccc(-c2ccc3[nH]c(COc4ccc(C(F)(F)F)cc4)nc3c2)c1 [Cpd 114]
Assigned label: label 0
//
Compound: CC(C)c1ccc(OCc2nc3cc(-c4ccccc4S(N)(=O)=O)ccc3[nH]2)cc1 [Cpd 28]
Assigned label: label 1
//
Compound: CC(C)(O)c1ccccc1-c1ccc2[nH]c(COc3ccc(Cl)cc3)nc2c1 [Cpd 23]
Assigned label: label 1

--- query ---
(Q) Please check the record OCc1ccccc1-c1ccc2[nH]c(COc3ccc(C(F)(F)F)cc3)nc2c1 [Cpd 116] and state if its inhibition at 0.5 µM is at or above 40%.
(A) label 1

====

# Test system: hTRPV1 (Homo sapiens)
# Construct: expressed in transfected cells; host or cells: HEK293
# Assay protocol: Human TRPV1 (hTRPV1) functional assay, FLIPR intracellular Ca2+, capsaicin challenge
# Type: cell-based
# Experimental conditions: derived from a variety of test concentrations; HEK293 cells expressing hTRPV1, capsaicin 0.030 μM challenge; read-out: IC50 value (symbol c)
Outcome measure: pIC50
Answers are plain numbers, as −log10 of the molar value.

Compound: NS(=O)(=O)c1ccccc1-c1ccc2[nH]c(CSc3ccc(Cl)cc3)nc2c1
pIC50: 7.12

Compound: CC(C)(O)c1ccccc1-c1ccc2[nH]c(COc3ccc(S(C)(=O)=O)cc3)nc2c1
pIC50: 7.89

Compound: NS(=O)(=O)c1ccc(C(F)(F)F)cc1-c1ccc2[nH]c(COc3ccc(C(F)(F)F)cc3)nc2c1
pIC50: 7.07

Compound: NS(=O)(=O)c1ccccc1-c1ccc2[nH]c(COc3ccc(Cl)c(C(F)(F)F)c3)nc2c1
pIC50: 7.89

Compound: NS(=O)(=O)c1ccccc1-c1ccc2[nH]c(CSc3ccc(OC(F)(F)F)cc3)nc2c1
pIC50: 6.91

Compound: CN(C)S(=O)(=O)c1ccccc1-c1ccc2[nH]c(COc3ccc(C(F)(F)F)cc3)nc2c1
pIC50: 8.52

Compound: CC(C)(C)c1ccc(OCc2nc3cc(-c4ccccc4S(N)(=O)=O)ccc3[nH]2)cc1
pIC50: 8.22

Compound: NS(=O)(=O)c1ccccc1-c1ccc2[nH]c(COc3ccc(F)c(F)c3)nc2c1
pIC50: 6.92

I have 7 compounds here; please give me pIC50 for each one.
1. CNS(=O)(=O)c1ccccc1-c1ccc2[nH]c(COc3cccc(C(F)(F)F)c3)nc2c1
2. CC(O)c1ccccc1-c1ccc2[nH]c(COc3ccc(C(F)(F)F)cc3)nc2c1 (centres unmarked) [Cpd 143]
3. NS(=O)(=O)c1ccccc1-c1ccc2[nH]c(CSc3ccc(C(F)(F)F)cc3)nc2c1
4. CS(=O)(=O)c1ccccc1-c1ccc2[nH]c(COc3ccc(SC(F)(F)F)cc3)nc2c1
5. CS(=O)(=O)c1ccccc1-c1ccc2[nH]c(COc3ccc(Br)cc3)nc2c1
6. CNS(=O)(=O)c1ccccc1-c1ccc2[nH]c(COc3ccc(C(F)(F)F)cc3)nc2c1
7. NS(=O)(=O)c1ccccc1-c1ccc2[nH]c(COc3ccc(F)c(Cl)c3)nc2c1

(A)
1. 7.46
2. 7.89
3. 8.31
4. 8.15
5. 7.18
6. 9.00
7. 7.42

I have 2 compounds here; please give me pIC50 for each one.
1. CC(O)CS(=O)(=O)c1ccccc1-c1ccc2[nH]c(COc3ccc(C(F)(F)F)cc3)nc2c1 (centres unmarked)
2. NS(=O)(=O)c1ccccc1-c1ccc2[nH]c(COc3cccc(OC(F)(F)F)c3)nc2c1

(A)
[7.90, 7.60]
